Numbers sourced from the supplement of paper PMC12042874.

# assayDetails: amyloid nucleation score (Sup35N fusion, yeast selection) (log enrichment); library NNK2; higher = more nucleation; inactive = no reads after selection;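 also: zero at mode of non-aggregating sequences after 7 days selection at 30°C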
parameter: amyloid nucleation score

substance | parameter | result
ILIKYVLAPWSSSLTVWGKA | amyloid nucleation score | -0.365
QSRQFLSVYFYLFFLFFSFL | amyloid nucleation score | inactive
QHYLKPAMARQSLKGIFDQD | amyloid nucleation score | -0.595
INSITKSVGGQRGARRY | amyloid nucleation score | 2.25
STLTFIVSSSDEGWSHYREA | amyloid nucleation score | 3.79
RMEVEFFVPW | amyloid nucleation score | 2.9
LYINGEISVVIRIWFGPLVV | amyloid nucleation score | 0.517
SFRKILESWKDAYLYDPALT | amyloid nucleation score | 0.113
CAINPKVKRSFLVI | amyloid nucleation score | -1.73
GWSSSGVVIRVPGSFRLVGR | amyloid nucleation score | 1.39
MAKSCGRSCTCSRSKVSVGG | amyloid nucleation score | 0.52
LAMEWSRCRTGPL | amyloid nucleation score | 1.68
ITYPVESLYNAWSGGPVTDG | amyloid nucleation score | 0.164
NQWSLRGGYWPVVLVCFAWM | amyloid nucleation score | inactive
LIQVAFQLYATVQVTVKTDV | amyloid nucleation score | 2.09
ICQCPVNTANTQLGVGTRLK | amyloid nucleation score | 0.114
NVWNLQLYPTATCAKYNGAV | amyloid nucleation score | 4.13
QKKLDLQ | amyloid nucleation score | -0.673
DIERQAVNRPVGRLGKTEDS | amyloid nucleation score | 0.242
TVASTYVLVTCHRAFDQS | amyloid nucleation score | 3.46
WRYSRKMDRPFYRAMCYVNI | amyloid nucleation score | 1.68

* * *

# assayDetails: amyloid nucleation score (Sup35N fusion, yeast selection) (log enrichment); library NNK2; higher = more nucleation; inactive = no reads after selection
Threshold check on amyloid nucleation score: at or above -0.02 gives TRUE, strictly below gives FALSE.

substance | assignedLabel
SSFFLGLPPIREIGPWTTQR | TRUE
SGDMCFWFSQTRHGLFKGIL | TRUE
CSVWWLWSLRM | TRUE
SSGRGIRLTLTVSIDRKKMG | FALSE
SGHISYG | TRUE
VWVRMRKAVGAVHYRDLRSS | TRUE

* * *

# assayDetails: amyloid nucleation score (Sup35N fusion, yeast selection) (log enrichment); library NNK2; higher = more nucleation; inactive = no reads after selection
Classify on amyloid nucleation score using class A: < 0.09; class B: ≥ 0.09 and < 1; class C: ≥ 1

substance | assignedLabel
GFALYFCSEFMVSVCRCKHT | class C
VLSNNFWRMSNFWVRMRHTL | class A
VFAYIHFVTLGGCLLGF | class C
SGWQFQSWRVQRMWLVELSC | class B
LRFCSSSVISGLQFSSRVVE | class A
SMFIVHSCSTWLTNNGLNHM | class C
SSLDRKAVLAILSSTYLLRL | class C
SAYVVLIEFVLNKVVGTLLR | class A
IVTINGNN | class A
GNRLWFGTIVRHLIYEVYVR | class B
GCHICHRWIKSVYRSNHALM | class B
GENKDYWGHGYVSLACNRQG | class B
TVRANLKTRCMSRTTNQEHT | class C
FPLIDTYLEFMEPNGYWNSS | class B
WARCHVLA | class A
VRMNPITAGLCVQCLHTQRF | class A
RPGYNQMDFDWRLLIDVFDG | class A
RRGQEGYRVEWA | class C
FNCHCSLSLVNHLASFTLSF | class C
LTFYCME | class A
PVRSRWPFSSSLAAVTTYRV | class C
NSLVAVSLSAWWKPGDGSFS | class C
IAAMTFFMMCLTYCVLWIAW | class C
LSGVFNSFCLRGNGREWVAL | class A
YDYFTLSTTGLWLAIYMWWC | class B
SPFTTSRDFMHRTPLLCDTC | class C
RLLFCGWLTN | class A
GSCVIM | class C
DWCVNVIERSGDTLEVMCNF | class B
KLHVGNCSFSKPSPAQAGSL | class B
SFDGGRDGRLMYIGRMLEEL | class A
LAFMRLPAVVLSSTLSFMKS | class B
GNNRAY | class A
VLNDFFWEHLPMGHNVGLTL | class A
SMQFLCYKKLC | class A
YFRLLISCQNRLLVRKLRAA | class A
GRSEVRFMTMLMLCKKCACL | class C
TCQPGRLALNAKERGSGDRL | class B
NDPGYLTTYI | class A
SLPRWTVCVCVQADGYWMWV | class C
YVCLRRWNWRMKLTCVSKLG | class B
ADFFVLDMWLTYCMKTLFSC | class A
CRCGWKGDSFKISMKMRNWV | class C
LIRKFRVVVMFSYVQVLPVI | class B
MWINHDPGWRCYYLYFPFL | class C
CVMMLSSFLQRCRRVVLDSR | class B
VRPRAPSSADNPLQ | class B
RFEHGSTFGDDKL | class A
ARKYLRCGSACVKVEYF | class C
FRVKLTLRFLNITECCLDYL | class C
VHSLFVNIRMLCTDGFASTG | class C
GYAYLSLHKA | class B
LFWGWITFTKECTNWGATIG | class B
QIRPLRKRELYSW | class C
SCSHYTVECKGAWGFCACGH | class A
